Parameter: IC50. Scope: all listed entries.
# Tested on: K562 cells
# Assay info: K562 cell culture and growth assay, 6 day MTT
# Assay type: cell-based, human
# Condition details: Table 9; K562, 6 days; mean ± S.E., 4 or more experiments; read-out: IC50 (μM) 6dMTT
Property label: IC50 (µM)

Compound: COC(=O)c1cc(NCc2cc(O)cc(Br)c2O)ccc1Cl
Property label: IC50
Value units: µM
Meas value: 8.9
--
Compound: NC(=O)c1ccc(NCC2=CC(=O)C=CC2=O)cc1
Property label: IC50
Value units: µM
Meas value: 21.7
--
Compound: CC(C)C(OC(=O)c1ccc(NCC2=CC(=O)C=CC2=O)cc1)C(C)C [COOCH[CH(CH3)2]2 / H / 2,5-quinoyl]
Property label: IC50
Value units: µM
Meas value: 38.8

###

# Target system: p210^bcr-abl (Homo sapiens)
# Construct: immune complexes containing ^32P-labeled p210^bcr-abl were collected on protein Sepharose beads; BCR (N-terminal part of the breakpoint cluster region protein, natural fusion partner); endogenous in cells; host or cells: K562 cells (lysate, immunoprecipitated on Protein A-Sepharose); the other entry of the earlier key: BCR (P11274, Breakpoint cluster region protein)
# Sequence (P00519 with tags, fused parts or gaps): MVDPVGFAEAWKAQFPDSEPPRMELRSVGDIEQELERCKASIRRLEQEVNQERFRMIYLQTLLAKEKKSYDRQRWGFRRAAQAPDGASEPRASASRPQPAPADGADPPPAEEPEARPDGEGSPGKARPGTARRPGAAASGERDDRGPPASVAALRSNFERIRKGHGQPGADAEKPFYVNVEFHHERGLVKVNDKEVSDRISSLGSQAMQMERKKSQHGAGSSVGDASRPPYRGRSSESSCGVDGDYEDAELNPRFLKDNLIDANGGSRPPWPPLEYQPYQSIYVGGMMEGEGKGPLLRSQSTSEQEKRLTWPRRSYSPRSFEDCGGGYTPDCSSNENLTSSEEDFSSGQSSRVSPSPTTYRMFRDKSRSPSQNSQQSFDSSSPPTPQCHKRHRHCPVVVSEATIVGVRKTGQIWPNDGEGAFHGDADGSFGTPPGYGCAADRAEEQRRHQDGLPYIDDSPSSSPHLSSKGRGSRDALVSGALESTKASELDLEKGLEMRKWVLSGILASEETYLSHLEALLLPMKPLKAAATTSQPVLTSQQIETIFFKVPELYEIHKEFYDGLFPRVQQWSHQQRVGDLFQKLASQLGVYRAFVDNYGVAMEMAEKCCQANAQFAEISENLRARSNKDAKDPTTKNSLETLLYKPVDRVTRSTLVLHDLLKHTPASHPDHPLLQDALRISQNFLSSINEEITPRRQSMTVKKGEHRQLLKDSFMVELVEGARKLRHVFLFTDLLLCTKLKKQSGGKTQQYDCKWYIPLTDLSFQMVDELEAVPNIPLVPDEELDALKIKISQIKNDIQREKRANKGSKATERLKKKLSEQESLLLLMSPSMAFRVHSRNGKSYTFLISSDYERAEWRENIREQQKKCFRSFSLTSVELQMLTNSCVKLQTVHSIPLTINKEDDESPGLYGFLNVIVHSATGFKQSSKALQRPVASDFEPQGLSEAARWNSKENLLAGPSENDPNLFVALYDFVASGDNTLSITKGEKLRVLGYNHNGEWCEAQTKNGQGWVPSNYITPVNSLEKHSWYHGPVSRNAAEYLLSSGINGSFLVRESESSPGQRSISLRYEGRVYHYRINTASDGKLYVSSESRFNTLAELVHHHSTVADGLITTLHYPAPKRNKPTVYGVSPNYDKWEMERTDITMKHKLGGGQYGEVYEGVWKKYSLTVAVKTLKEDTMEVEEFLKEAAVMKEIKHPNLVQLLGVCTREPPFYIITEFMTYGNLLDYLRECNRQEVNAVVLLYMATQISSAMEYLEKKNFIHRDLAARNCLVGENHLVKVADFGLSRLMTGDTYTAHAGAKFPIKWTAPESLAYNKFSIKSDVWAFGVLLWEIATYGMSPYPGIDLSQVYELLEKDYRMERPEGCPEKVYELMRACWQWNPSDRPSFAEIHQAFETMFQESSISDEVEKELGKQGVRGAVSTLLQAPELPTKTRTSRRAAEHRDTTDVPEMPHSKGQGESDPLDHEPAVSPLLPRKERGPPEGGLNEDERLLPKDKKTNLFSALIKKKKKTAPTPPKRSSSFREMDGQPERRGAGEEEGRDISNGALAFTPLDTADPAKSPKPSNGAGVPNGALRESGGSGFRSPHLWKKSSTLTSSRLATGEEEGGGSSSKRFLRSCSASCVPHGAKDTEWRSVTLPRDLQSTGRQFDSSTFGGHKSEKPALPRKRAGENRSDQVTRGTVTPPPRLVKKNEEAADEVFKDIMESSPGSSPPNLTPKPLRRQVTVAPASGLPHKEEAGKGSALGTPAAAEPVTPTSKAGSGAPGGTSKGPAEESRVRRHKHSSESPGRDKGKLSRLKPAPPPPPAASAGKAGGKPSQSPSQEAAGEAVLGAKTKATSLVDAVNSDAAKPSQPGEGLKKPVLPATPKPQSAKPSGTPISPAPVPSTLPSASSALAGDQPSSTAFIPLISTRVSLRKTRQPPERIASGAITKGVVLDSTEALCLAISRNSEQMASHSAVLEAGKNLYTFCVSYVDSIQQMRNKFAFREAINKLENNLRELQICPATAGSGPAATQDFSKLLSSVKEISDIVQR
# Assay info: Inhibition of in vitro auto-phosphorylation of p210^bcr-abl, immune-complex kinase assay
# Type: biochemical
# Condition details: Table 9; immune complex kinase assay; mean ± S.E., 3 experiments; read-out: Enzyme Assays IC50 (μM) p210bcl-abl in vitro phosphorylation
Property label: IC50

Sample smiles: NC(=O)c1ccc(NCC2=CC(=O)C=CC2=O)cc1
Meas value: 5.1 µM
--
Sample smiles: COC(=O)c1ccc(NCC2=CC(=O)C=CC2=O)cc1O
Meas value: 5.15 µM
--
Sample smiles: COC(=O)c1cc(NCc2cc(O)cc(Br)c2O)ccc1Cl
Meas value: 3.56 µM
